The reported measurements were obtained from ChEMBL document CHEMBL5136972.

method: Oral bioavailability in CD1 mouse at 500 mg/kg administered as single dose by LC-MS/MS analysis
Format: ADME, organism-based
run-parameters: in vivo
assay-metric: bioavailability (%)

O=c1nc(NO)ccn1[C@@H]1O[C@H](CO)[C@@H](O)[C@H]1O [N-HYDROXYCYTIDINE] ... 36

====

method: Inhibition of MERS CoV 3CL protease expressed in Escherichia coli BL21-Gold DE3 cells by FRET assay
Design: species or system Middle East respiratory syndrome-related coronavirus
assay-metric: IC50

CC(C)(C)OC(=O)Nc1cccn([C@@H](CC2CC2)C(=O)N[C@@H](C[C@@H]2CCNC2=O)C(=O)C(=O)NCc2ccccc2)c1=O ... 580 nM
